Experiment: Cytotoxicity in RT-qPCR assay (Cp of housekeeping gene β-actin)
Format: cell-based
Settings: African green monkey, RT-qPCR serotype 2 16681, Protocol A
Reported CC50 at 3 days values follow for various compounds

# compound, CC50 at 3 days
measured = [
    ("COc1cc(NC(C(=O)c2c[nH]c3c(C)cc(OC(F)(F)F)cc23)c2ccc(F)cc2OC)cc(OCCO)c1 (single isomer, unassigned)", "3.7 µM"),
    ("COc1cc(NC(C(=O)c2c[nH]c3ccc(C(F)(F)F)cc23)c2ccc(F)cc2OC)cc(OCCO)c1 (single isomer, unassigned)", "3.5 µM"),
]

Please give the measured CC50 at 3 days for this compound: COc1cc(NC(C(=O)c2c[nH]c3ccc(C(F)(F)F)cc23)c2ccc(Cl)cc2OC)cc(OCCO)c1 (single isomer, unassigned)
3.4 µM

Reference source for all entries: patent US10646469B2
